- Assay Target: human FKBP12 (Homo sapiens, UniProt P62942)
- Sequence (P62942 whole entry): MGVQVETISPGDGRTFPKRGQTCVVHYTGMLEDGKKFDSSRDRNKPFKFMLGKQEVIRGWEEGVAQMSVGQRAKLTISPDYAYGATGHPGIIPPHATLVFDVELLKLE
- Assay Protocol: competitive fluorescence polarization (FP) FKBP binding assay
- Condition Notes: =IC50/IC50 of rapamycin; C24 oximes
The entries below are paired with their reported fold loss in affinity (vs rapamycin).
Property Measured: fold loss in affinity (vs rapamycin)

Compound: CCON=C1CC(C(C)CC2CCC(O)C(OC)C2)OC(=O)C2CCCCN2C(=O)C(=O)C2(O)OC(CCC2C)CC(OC)C(C)=CC=CC=CC(C)CC(C)C(=O)C(OC)C(O)C(C)=CC1C (stereo not shown) [Compound 7, Rapamycin (E and Z)-24-(O-ethyloxime)]
Assay Target: human FKBP12 (Homo sapiens, UniProt P62942)
Op: =
Numeric Value: 1287
--
Compound: COC1CC2CCC(C)C(O)(O2)C(=O)C(=O)N2CCCCC2C(=O)OC(C(C)CC2CCC(O)C(OC)C2)CC(=NOCc2ccccc2)C(C)C=C(C)C(O)C(OC)C(=O)C(C)CC(C)C=CC=CC=C1C (stereo not shown) [Compound 12, Rapamycin (E and Z)-24-(O-benzyloxime)]
Assay Target: human FKBP12 (Homo sapiens, UniProt P62942)
Op: =
Numeric Value: 616
--
Compound: COC1CC2CCC(C)C(O)(O2)C(=O)C(=O)N2CCCCC2C(=O)OC(C(C)CC2CCC(O)C(OC)C2)CC(=NOC(C)(C)C)C(C)C=C(C)C(O)C(OC)C(=O)C(C)CC(C)C=CC=CC=C1C (stereo not shown) [Compound 19]
Assay Target: human FKBP12 (Homo sapiens, UniProt P62942)
Op: >
Numeric Value: 13043
--
Compound: CO[C@H]1C[C@@H]2CC[C@@H](C)[C@@](O)(O2)C(=O)C(=O)N2CCCC[C@H]2C(=O)O[C@H]([C@H](C)C[C@@H]2CC[C@@H](O)[C@H](OC)C2)C/C(=N/OCc2ccccc2)[C@H](C)/C=C(\C)[C@@H](O)[C@@H](OC)C(=O)[C@H](C)C[C@H](C)/C=C/C=C/C=C/1C [Compound 11, Rapamycin (E and Z)-24-(O-benzyloxime)]
Assay Target: human FKBP12 (Homo sapiens, UniProt P62942)
Op: =
Numeric Value: 3627
